assay: Pharmacokinetics of Compounds 27, 16, 14 and 22 in SD rats; format: in vivo; conditions: Sprague-Dawley, rat, in vivo, IV, dose 1 (mg/kg)
QUANTITY_NAME: Cmax

Worked cases, answers included:
COCCNc1ccc(CCNc2nc(N)n3nc(-c4ccco4)nc3n2)cc1: 1340 ng/mL
Nc1nc(NCCc2ccc(OCCN3CC[C@H](F)C3)cc2)nc2nc(-c3ccco3)nn12: 986 ng/mL
Nc1nc(NCCc2ccc(OCCN3CCC(F)(F)C3)cc2)nc2nc(-c3ccco3)nn12: 1680 ng/mL

// query Consider the compound shown here: Nc1nc(NCCc2ccc(NC3COC3)cc2)nc2nc(-c3ccco3)nn12 What is its recorded Cmax?
// result 2350 ng/mL

----------
Answer each item with its documented solubility at 2 h.
assay: Solubility in biological vehicles (SGF, FaSSIF, FeSSIF) at 37° C., HPLC; type: physicochemical; settings: fasted state simulated intestinal fluid (FaSSIF), 37 °C, fassif, thermodynamic from solid, 2 h

CC(=O)O.Nc1nc(NCCc2ccc(NC3COC3)cc2)nc2nc(-c3ccco3)nn12 [Acetate of Compound 22]: 9.9 µg/mL

Here's the next entry for you.
// query So what's the measured solubility at 2 h for this one? Nc1nc(NCCc2ccc(NC3COC3)cc2)nc2nc(-c3ccco3)nn12
// result 4.2 µg/mL

----------
assay: Pharmacokinetics of acetate of Compound 22 in SD rats with single and repeated administration; assay type: in vivo; conditions: male, Sprague-Dawley, rat, plasma, po, 63 mg/kg, Group 3 PO 63 mg/kg single, Male, read-out: T1/2 (converted)
QUANTITY_NAME: half-life (h)
Numbers only, in h.

// query Dear colleague, I am looking for the recorded half-life of the following molecule: CC(=O)O.Nc1nc(NCCc2ccc(NC3COC3)cc2)nc2nc(-c3ccco3)nn12 [Acetate of Compound 22]
// result 3.1

----------
test: Pharmacokinetics of acetate of Compound 22 in SD rats with single and repeated administration; assay type: in vivo; details: female, Sprague-Dawley, rat, plasma, po, 63 mg/kg, Group 3 PO 63 mg/kg single, Female, read-out: AUC0-t
QUANTITY_NAME: AUC(0-t) (µg·h/mL)
Answers are plain numbers, in µg·h/mL.

// query Could you share which AUC(0-t) value was measured for CC(=O)O.Nc1nc(NCCc2ccc(NC3COC3)cc2)nc2nc(-c3ccco3)nn12 [Acetate of Compound 22] ?
// result 137

----------
experiment: Pharmacokinetics of acetate of Compound 22 in SD rats with single and repeated administration; type: in vivo; conditions: male, Sprague-Dawley, rat, plasma, po, 63 mg/kg, Group 5 PO 63 mg/kg repeated, Day 7, Male, read-out: Cmax
QUANTITY_NAME: Cmax (ng/mL)
Give bare numbers, in ng/mL.

// query Dear colleague, I am looking for the recorded Cmax of the following compound: CC(=O)O.Nc1nc(NCCc2ccc(NC3COC3)cc2)nc2nc(-c3ccco3)nn12 [Acetate of Compound 22]
// result 31000

----------
biological target: human ADORA2B (Homo sapiens, UniProt P29275); test: Calcium flow test (FLIPR), ADORA2B stably transfected HEK293; details: Table 9
Sequence (P29275 whole entry): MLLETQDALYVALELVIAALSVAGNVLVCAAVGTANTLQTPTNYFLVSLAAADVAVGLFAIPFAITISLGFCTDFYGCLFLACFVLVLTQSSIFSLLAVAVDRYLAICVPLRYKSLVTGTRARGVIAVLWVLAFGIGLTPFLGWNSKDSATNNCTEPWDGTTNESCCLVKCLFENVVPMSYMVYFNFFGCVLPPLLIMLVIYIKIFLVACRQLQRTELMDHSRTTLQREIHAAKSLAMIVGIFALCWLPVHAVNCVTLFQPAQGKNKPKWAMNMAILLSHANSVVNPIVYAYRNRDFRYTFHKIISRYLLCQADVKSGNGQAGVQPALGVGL
QUANTITY_NAME: IC50 (nM)
One number for each entry, in nM.

Cn1nnc(-c2ccc(CCNc3nc(N)n4nc(-c5ccco5)nc4n3)cc2)n1: 194

API: the following record is the query input.
// query Dear colleague, I am looking for the recorded IC50 of the following compound: Nc1nc(NCCc2ccc(NC3COC3)cc2)nc2nc(-c3ccco3)nn12
// result 106
